B1: ATGL (PNPLA2, patatin-like phospholipase domain-containing protein 2), human, full length / G0S2 (G0/G1 switch protein 2), human (parent)
chain 1: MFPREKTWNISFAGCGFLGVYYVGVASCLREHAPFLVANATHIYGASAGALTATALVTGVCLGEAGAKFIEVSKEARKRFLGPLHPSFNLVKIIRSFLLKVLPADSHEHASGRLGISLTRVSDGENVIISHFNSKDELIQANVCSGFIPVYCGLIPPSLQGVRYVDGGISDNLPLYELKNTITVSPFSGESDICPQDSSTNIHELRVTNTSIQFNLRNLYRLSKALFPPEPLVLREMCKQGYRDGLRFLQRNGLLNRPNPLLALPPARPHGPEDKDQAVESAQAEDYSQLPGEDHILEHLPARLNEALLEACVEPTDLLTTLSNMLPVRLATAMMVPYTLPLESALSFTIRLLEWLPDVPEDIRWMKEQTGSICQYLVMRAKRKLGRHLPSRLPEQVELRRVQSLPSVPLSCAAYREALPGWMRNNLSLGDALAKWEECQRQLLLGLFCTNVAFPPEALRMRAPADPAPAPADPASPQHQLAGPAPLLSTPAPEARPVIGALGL
chain 2: METVQELIPLAKEMMAQKRKGKMVKLYVLGSVLALFGVVLGLMETVCSPFTAARRLRDQEAAVAELQAALERQALQKQALQEKGKQQDTVLGGRALSNRQHAS

# Variants of: B1
# Measurement Notes: LUMIER: Protein A-ATGL variant and firefly luciferase-partner co-expressed in HEK293T, lysates immunoprecipitated on IgG-coated plates, co-precipitated partner measured as luciferase luminescence
# Conditions: with G0S2 (G0/G1 switch protein 2), transient co-transfection, IgG-coated LUMITRAC plates, 2 h at 4 °C, three PBS washes, Bright-Glo luciferase reagent, triplicates per assay, two …, parent: 0.56, not graded, scale: log2 fold change of co-immunoprecipitated luminescence relative to wild-type ATGL within each experiment
Measurement Kind: screen value
Just the number, please, no unit attached.

Consider the following illustrative entries.
{"Variant Description": "chain 1 Y415A", "screen value": -0.27}
{"Variant Description": "chain 1 G66A", "screen value": 0.00762}
{"Variant Description": "chain 1 E368A", "screen value": -0.215}

Input: Reported screen value for chain 1 L62A : what is it?
Output: -2.25

Input: screen value lookup needed for chain 1 V127L , thanks.
Output: 0.376
